- Tested on: HS 578T breast
- experimentalProtocol: NCI tumour cell line growth inhibition, 48 h; in the data active means GI50 below about 0.43 µM; inactive means the rest
Just give me one of these, please: YES (active), NO (inactive)

**Q:** What classification did O=C(O)[C@@H]1CCCCN1Cc1cc2cc3c(cc2c2cc(OCc4ccccc4)ccc12)OCO3 end up with in this test?
**A:** NO

**Q:** What classification did Fc1ccc(-c2nn3ncccc3c2-c2ccnc(Nc3ccc4c(c3)OCCO4)n2)cc1 end up with in this test?
**A:** NO

**Q:** What classification did COc1cc(NS(=O)(=O)c2ccc(-c3cnc(C4CC4)o3)cc2)ccc1F end up with in this test?
**A:** YES

**Q:** What classification did C=C1CC[C@@H]2[C@](C)(COC(C)=O)[C@H](OC(C)=O)CC[C@@]2(C)[C@@H]1CC(Nc1ccc(S(=O)(=O)Nc2ncccn2)cc1)C1=CCOC1=O (stereo not given in full) end up with in this test?
**A:** NO

**Q:** What classification did COc1ccc(-c2nnc(COc3ccc(NC(=O)Nc4ccc(Cl)c(C(F)(F)F)c4)cc3F)o2)cc1 end up with in this test?
**A:** NO

**Q:** What classification did Cc1ccc(NC(=O)NCCCOc2ccc(N3C(N)=NC(N)=NC3(C)C)cc2Cl)cc1S(=O)(=O)F end up with in this test?
**A:** NO

**Q:** What classification did Nc1nc(-c2cccc(Cl)c2)c(-c2ccc3ncccc3n2)s1 end up with in this test?
**A:** NO

**Q:** What classification did COC(=O)[C@H](Cc1c[nH]c2ccccc12)NC(=O)[C@@H](OC)[C@@H]1Cc2cc3cc(OC4CC(OC5CC(O)C(O)C(C)O5)C(O)C(C)O4)c(C)c(O)c3c(O)c2C(=O)[C@H]1OC1CC(OC2CC(OC3CC(C)(O)C(O)C(C)O3)C(O)C(C)O2)C(O)C(C)O1 (stereo not given in full) end up with in this test?
**A:** YES

**Q:** What classification did COc1cc2c3c(n(CCCCOC(=O)C(Cl)(Cl)Cl)c(=O)c2cc1OC)-c1cc2c(cc1C3=O)OCO2 end up with in this test?
**A:** NO

**Q:** What classification did COc1ccccc1Cn1cc2c(c1-c1ccccc1)CCc1cnoc1-2 end up with in this test?
**A:** NO
